- experiment: Cytotoxicity against […] cells after 48 hrs by SRB assay
- Assay type: cell-based, Cricetulus griseus
- applied_conditions: chinese hamster, CHO-K1 cells
Can you tell me GI50 at 48 h for the items I'm about to list?
API: value field is a number in µM; no unit string.

Prompt: Item under review: C=C1CCCC(C)(C)C1CCc1ccc2c(c1)C(=O)C=C(OC)C2=O (stereo not given) . Reported GI50 at 48 h?
Completion: 89

Prompt: Item under review: C=C1CCCC(C)(C)C1CC/C(C)=C/Cc1cc(O)ccc1O (stereo not given) . Reported GI50 at 48 h?
Completion: 2.1

Prompt: Item under review: CC(=O)O[C@H]1C(=O)[C@@]2(C)[C@H]([C@H](OC(=O)c3ccccc3)[C@]3(O)C[C@H](OC(=O)[C@H](O)[C@@H](NC(=O)c4ccccc4)c4ccccc4)C(C)=C1C3(C)C)[C@]1(OC(C)=O)CO[C@@H]1C[C@@H]2O . Reported GI50 at 48 h?
Completion: 5.9

Prompt: Item under review: CN[C@@H]1C[C@H]2O[C@@](C)([C@@H]1OC)n1c3ccccc3c3c4c(c5c6ccccc6n2c5c31)C(=O)NC4 . Reported GI50 at 48 h?
Completion: 0.13

Prompt: Item under review: C=C1CCCC(C)(C)C1CCC1(C)C=Cc2cc(O)cc(OC)c2O1 (stereo not given) . Reported GI50 at 48 h?
Completion: 27
